# test-method-notes: in vitro
# condition-label: PAMPA, PAMPA-BBB Pe(10^-6 cm/sec), Table S3: compounds exhibiting low PAMPA-BBB permeability
assay-readout: Papp

> print(dat)
                molecule  endpoint.result
1  O=C(O)/C=C/c1c[nH]cn1   < 1 ×10⁻⁶ cm/s

## Task Give Papp for the following molecule: Nc1ncn([C@@H]2O[C@H](CO)[C@@H](O)[C@H]2O)c(=O)n1
## Result < 1 ×10⁻⁶ cm/s

## Task Give Papp for the following molecule: O=C(O)c1cccnc1C(=O)O
## Result < 1 ×10⁻⁶ cm/s

## Task Give Papp for the following molecule: O=c1ccc2ccc(O)c(O)c2o1
## Result 3.8 ×10⁻⁶ cm/s

## Task Give Papp for the following molecule: O=C(O)c1ccccc1O
## Result 1.8 ×10⁻⁶ cm/s

## Task Give Papp for the following molecule: CC(=O)c1ccc(O[C@@H]2O[C@H](CO)[C@@H](O)[C@H](O)[C@H]2O)cc1
## Result < 1 ×10⁻⁶ cm/s
